System: MARIMO;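 further: after 48 h exposure read by CellTiter-Glo luminescence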
Assay: cell viability relative to vehicle control; higher = less cytotoxic
Settings: 10 µM; SRSF2 genotype: SRSF2 P95H/wt

compound	cell viability, %
COc1cc2ncnc(Nc3ccc(F)c(Cl)c3)c2cc1O	102
O=C1C=C2C=C[C@@H](O)[C@H](O)[C@H]2O1 [Griffonilide]	98.7
COc1c(C)c(C(=O)c2ccc(N)c(C(=O)O)c2)n2ccccc12	102
Cn1c2ccccc2c2c3c(c4c5ccccc5n(CCC#N)c4c21)CNC3=O	85.5
O=C(Nc1ccc(Br)cc1)c1ccc(Br)c(S(=O)(=O)NCc2ccccc2)c1	88.5
CN1c2cc(O)c(N=NC(N)=O)cc2CC1S(=O)(=O)O (centres undefined) [Carbazochrome sodium sulfonate]	92.7
OC1CCC(Nc2ncc3nc(Nc4c(F)cc(F)cc4F)n([C@H]4CCOC4)c3n2)CC1 (some centres undefined)	116
C[C@H](CC(=O)C[C@@H](C)[C@H]1C[C@H](O)[C@@]2(C)C3=C(C(=O)C[C@]12C)[C@@]1(C)CCC(=O)C(C)(C)[C@@H]1C[C@@H]3O)C(=O)O	104
Cc1ccccc1C(=O)Nc1ccc(C(=O)N2CCCC(O)c3cc(Cl)ccc32)c(C)c1 (centres undefined)	80.7
Cc1cc(C)cc(NC(=O)Cc2ccc(OC(C)(C)C(=O)O)cc2)c1 [Efaproxiral sodium]	109
N#Cc1ccc(Oc2ccc3c(c2)COB3O)cc1	73.8
COc1cc(OCc2cccc(-c3ccccc3)c2C)cc(OC)c1CN1CCCC[C@H]1C(=O)O	83.7
CCCCC(=O)OCC(=O)[C@H]1[C@H](C)C[C@H]2[C@@H]3C[C@H](F)C4=CC(=O)C=C[C@]4(C)[C@@]3(F)[C@@H](O)C[C@@]21C [Diflucortolone valerate]	95.1
NC(N)=Nc1nc(CSCC/C(N)=N/S(N)(=O)=O)cs1	111
CO[C@@H]1[C@@H](OC(N)=O)[C@@H](O)[C@H](Oc2ccc3c(O)c(NC(=O)c4ccc(O)c(CC=C(C)C)c4)c(=O)oc3c2C)OC1(C)C [Novobiocin sodium (Albamycin)]	91.6
CC(=O)Oc1cc(C)c(OC(C)=O)c2ccccc12 [Menadiol Diacetate]	49.6
O=c1[nH]c(=O)n([C@H]2C[C@H](O)[C@@H](CO)O2)cc1F	86.5
Cc1[nH]c(/C=C2\C(=O)Nc3ccccc32)c(C)c1CCC(=O)O [Orantinib (TSU-68, SU6668)]	96.3
COc1ccc(-c2oc3c(CC=C(C)C)c(O[C@@H]4O[C@H](CO)[C@@H](O)[C@H](O)[C@H]4O)cc(O)c3c(=O)c2O[C@@H]2O[C@@H](C)[C@H](O)[C@@H](O)[C@H]2O[C@@H]2O[C@@H](C)[C@H](O)[C@@H](O)[C@H]2O)cc1	100
Cc1cc(C)c(-c2csc(NC(=O)c3ccccc3)n2)c(C)c1	35.1
CC[C@H]1OC(=O)[C@H](C)[C@@H](O[C@H]2C[C@@](C)(OC)[C@@H](O)[C@H](C)O2)[C@H](C)[C@@H](O[C@@H]2O[C@H](C)C[C@H](N(C)C)[C@H]2O)[C@](C)(O)C[C@@H](C)[C@@H]2N[C@@H](COCCOC)O[C@H]([C@H]2C)[C@]1(C)O	97.1
OC[C@H]1O[C@H](OCC2O[C@@H](O)[C@H](O)[C@@H](O)[C@@H]2O)[C@H](O)[C@@H](O)[C@H]1O (some centres undefined)	105
CC(=O)NC(CC(C)C)C(=O)O (centres undefined)	103
CCOC(=O)NCCCC(=O)NCCc1ccccc1	105
CCCC(=O)Nc1ncnc2c1ncn2[C@@H]1O[C@@H]2COP(=O)(O)O[C@H]2[C@H]1OC(=O)CCC	87.2
CC(C)=CCC[C@](C)(O[C@@H]1O[C@H](CO)[C@@H](O)[C@H](O)[C@H]1O)[C@H]1CC[C@]2(C)[C@@H]1[C@H](O)C[C@@H]1[C@@]3(C)CC[C@H](O)C(C)(C)[C@@H]3[C@@H](O[C@@H]3O[C@H](CO)[C@@H](O)[C@H](O)[C@H]3O)C[C@]12C [Ginsenoside Rg1]	96.7
O=C(O)C(Cc1ccccc1[N+](=O)[O-])=NNc1nc(-c2ccc(Cl)c(Cl)c2)cs1	94.2
C[C@H]1O[C@@H](n2cc(F)c(=O)[nH]c2=O)[C@H](O)[C@@H]1O	100
Cc1ccc(C(=O)Nc2cccc(C(F)(F)F)c2)cc1Nc1nc(-c2cccnc2)nc2c1cnn2C	46.1

Values were extracted from the supplement of paper PMC10981050.
